Reported cell viability values for the following molecules.
# System: MOLM14;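 note: after 48 h exposure read by CellTiter-Glo luminescence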
# Assay Summary: cell viability relative to vehicle control; higher = less cytotoxic
# Condition Info: 10 µM; SRSF2 genotype: SRSF2 wt/wt
Counter-ions that a name gives are not always drawn.

Answer with the recorded cell viability of CCN(C)C(=O)Oc1cccc([C@H](C)N(C)C)c1 [Rivastigmine tartrate (Exelon)] only.
108%

Answer with the recorded cell viability of NCC(O)c1ccc(O)cc1 (racemic) [(+,-)-Octopamine HCl] only.
96.8%

Answer with the recorded cell viability of CCC(=O)O[C@H]1CC[C@H]2[C@@H]3CC[C@H]4CC(=O)[C@H](C)C[C@]4(C)[C@H]3CC[C@]12C [Drostanolone Propionate] only.
83.8%

Continuing:
Answer with the recorded cell viability of Nc1ncnc2c1ccn2[C@@H]1O[C@H]([C@H](O)c2ccccc2)[C@@H](O)[C@H]1O only.
89.3%

Answer with the recorded cell viability of CC(C)=CCC[C@]1(C)C=Cc2c(O)c3c(c(CC=C(C)C)c2O1)O[C@]12C(=C[C@@H]4C[C@H]1C(C)(C)O[C@@]2(C/C=C(/C)C(=O)O)C4=O)C3=O only.
0.51%

Answer with the recorded cell viability of CC(C)N(CCC(C(N)=O)(c1ccccc1)c1ccccn1)C(C)C (stereo not drawn) [disopyramide phosphate] only.
104%

Answer with the recorded cell viability of COc1cc([C@@H]2c3cc4c(cc3[C@@H](O)[C@H]3COC(=O)[C@H]23)OCO4)cc(OC)c1O [4'-Demethylepipodophyllotoxin] only.
6.99%

Answer with the recorded cell viability of NC(=O)CN1CCCC1=O only.
105%

Source: the supplement of paper PMC10981050
